Hey, just so you know, these numbers are from patent US9340538B2.

Tested on: HBV
protocol description: In-vitro anti-HBV activity in stable HBV-producing cell line (HepG2.2.15), HBV DNA in culture fluid by qPCR
Type: cell-based
conditions used: Hepatitis B virus, 168 h; 500 nmol final concentration, HepG2.2.15 cells, HBV DNA in culture media on day 7 post seeding, vs DMSO control; read-out: HBV (% Inh.) (500 nmol)
Assignment: determine reported inhibition at 0.5 µM for the given molecules.
Dear colleague, please send the value followed by its unit.

Previously resolved entries follow.
molecule: CCOC(=O)C1=C(CN2CC(C)(C)OC[C@H]2C(=O)O)NC(c2nccs2)=NC1c1ccc(F)cc1Cl (some centres unmarked)
inhibition at 0.5 µM: 45%
//
molecule: CCOC(=O)C1=C(CN2CCOC[C@H]2C(=O)N(C)OC)NC(c2nccs2)=NC1c1ccc(F)cc1Br (some centres unmarked)
inhibition at 0.5 µM: 94%
//
molecule: CCOC(=O)C1=C(CN2CCOC(CCC(N)=O)C2)NC(c2nccs2)=NC1c1ccc(F)cc1Br (centres unmarked)
inhibition at 0.5 µM: 93.3%
//
molecule: CCOC(=O)C1=C(CN2CCOCC2C(=O)O)NC(c2nnc(C)s2)=NC1c1ccc(F)cc1Br (centres unmarked)
inhibition at 0.5 µM: 36.5%
//
molecule: CCOC(=O)C1=C(CN2CCOC[C@H]2C(=O)NOC)NC(c2nccs2)=NC1c1ccc(F)cc1Br (some centres unmarked)
inhibition at 0.5 µM: 92.6%
//
molecule: CCOC(=O)C1=C(CN2CCOCC2C(=O)O)NC(c2nccs2)=NC1c1ccccc1C(F)(F)F (centres unmarked)
inhibition at 0.5 µM: 75.8%
//
molecule: COC(=O)C1=C(CN2CCOCC2C(=O)O)NC(c2nccs2)=NC1c1ccc(F)cc1Br (centres unmarked)
inhibition at 0.5 µM: 99.9%

Case CCOC(=O)C1=C(CN2CCOCC2C(=O)O)NC(c2ncn(C)n2)=NC1c1ccc(F)cc1Br (centres unmarked) , HBV, inhibition at 0.5 µM recorded as 37.5%
